Sourced from the supplement of paper PMC9170038

- System: MS2 coat protein
- EXPERIMENT: apparent KD of MS2 coat protein; designed switch direction (-1 OFF switch, 1 ON switch): -1; higher = weaker reporter binding
- TEST_CONDITIONS: Eterna round: R95; input ligand: FMN 200 uM
Reported apparent KD of MS2 coat protein values for the following sequences.
PROPERTY_NAME: apparent KD of MS2 coat protein

| SEQUENCE_CHAIN | EXPERIMENTAL_RESULT |
| --- | --- |
| AAGAACAGAGGAUAUCGCGGGCAGCACAUGAGGAUCACCCAUGUGAUGCUCCGCGGGCCGCGAGAAGGCUGAAAUG [Dizabe] (puzzle: Exclusion 5) | 14.2 nM |
| CUGGUCCGAGGAUAUAUGAUGUGAAACAUGAGGAUCACCCAUGUAAUAUUAUGGAGGUAAAUAGAAGGCGGACUAG [Mat - Exclusion 5 - JL mod - D35] (puzzle: Exclusion 5) | 45.3 nM |
| AAAUGCAGGUAAAGAUUCUACAUGAGGAUCACCCAUGUGCUCGUCUUAUAAAGUACUAUCACGAAAGUGAUAGUACA [Sensor 3, v1 - 41] (puzzle: Sensor v3, turn-off variant 1) | 27.6 nM |
| AGUACUAACACGAAUGUGUUAGUACAAUAAGCUUGUGAAACAUGAGGAUCACCCAUGUCCUCAUAAGCUCGUCUUAU [salish99_TOv2_r3_032] (puzzle: Sensor v3, turn-off variant 2) | 16.3 nM |
| AAUACAAGCGAGAUCCUAAACAUGAGGAUCACCCAUGUGCUCGUCUUAUAAAGUACUAUCACGAAAGUGAUAGUACA [Sensor 3, v1 - 67] (puzzle: Sensor v3, turn-off variant 1) | 16.7 nM |

* * *

- Test system: MS2 coat protein
- EXPERIMENT: apparent KD of MS2 coat protein; higher = weaker reporter binding
- TEST_CONDITIONS: Eterna round: R107; input ligand: arginine 13.2 mM
Reported apparent KD of MS2 coat protein values for the following sequences.

| SEQUENCE_CHAIN | UNIT_NAME | apparent KD of MS2 coat protein |
| --- | --- | --- |
| UAAACUACACAUGAGGAUCACCCAUGUGGCCGAGGACCGGUACGGCCGCCACUCGUGUGUUAAUAAAAGAACUGCAAGGUUCUGU [Laorat] | nM | 68.7 |
| CAAACAUGAGGAUCACCCAUGUAAUCAGAUACCAGUGACGAAAGUCACCCUUGGCAGCUGAUUACUUUAGUUCUAAGGUGUUUGA [EThA NP+V+V2 #5 +-Same Structure] | nM | 53.6 |
| ACAUGAGGAUCACCCAUGUAGAAAGAUCCUCGAGGACCGGUACGGCCGCCACUCGAGUGGCAGUGUGUGCAGAAAAUGCGCGCGC | nM | 28.6 |

* * *

- Test system: MS2 coat protein
- EXPERIMENT: apparent KD of MS2 coat protein; designed switch direction (-1 OFF switch, 1 ON switch): -1; higher = weaker reporter binding
- TEST_CONDITIONS: input ligand: FMN 200 uM
PROPERTY_NAME: apparent KD of MS2 coat protein (µM)

| SEQUENCE_CHAIN | PROPERTY_NAME | UNIT_NAME | EXPERIMENTAL_RESULT |
| --- | --- | --- | --- |
| UAUCCGACAGGAUAUACAUGAGGAUCACCCAUGUACCCACUGUAUGUAACCUCAAACUGUAGAAGGGUUGAUAU [Eternabot (L1) Solution 18] (Eterna round: R97, puzzle: Exclusion 3) | apparent KD of MS2 coat protein | µM | 0.0212 |
| UUUUAUAGAGGAUAUGCGUGAAUAUAUAUUCAUGGAAAUUUACAUGAGGAUCACCCAUGUAGAAGGCUGUGUUU [LRO-Excl2-19-mod 090 by JR] (Eterna round: R97, puzzle: Exclusion 2) | apparent KD of MS2 coat protein | µM | 0.0141 |
| CUCAUGUCAGGAUAUCAGGCAGGAAGCUGCCAAAAGUGGGAUGAGAAGGGACAUGAGGAUCACCCAUGUAAAUA [Mazasoti] (Eterna round: R97, puzzle: Exclusion 4) | apparent KD of MS2 coat protein | µM | 0.355 |
| AAAUUGGUAGAGGAUAUCGUACAGGAAACGGUGCGAGAAGGUUGCACAUGAGGAUCACCCAUGUUAAGUUGCGA [EX6 #45] (Eterna round: R97, puzzle: Exclusion 6) | apparent KD of MS2 coat protein | µM | 0.0241 |
| UAUAAGCUAGGAUAUACUGGCACACAACUCAUAAAUCCACGACAUGAGGAUCACCCAUGUAGAAGGAGCAAAUA [EX2 A.27] (Eterna round: R97, puzzle: Exclusion 2) | apparent KD of MS2 coat protein | µM | 0.0188 |

* * *

- System: MS2 coat protein
- EXPERIMENT: apparent KD of MS2 coat protein; designed switch direction (-1 OFF switch, 1 ON switch): -1; higher = weaker reporter binding
- TEST_CONDITIONS: input ligand: none
Kind request: treat 20 nM as inclusive, so apparent KD of MS2 coat protein at 20 nM or higher is Y, anything lower is N.

| SEQUENCE_CHAIN | LABEL_CLASS |
| --- | --- |
| GUCUCACAUGAGGAUCACCCAUGUGAGGAUAUACUGGGCAUUCUGGUGGCAGGUGGGCGUAGAAGGCACGUGGG [Eternabot (L1) Solution 82] (Eterna round: R97, puzzle: Exclusion 1) | N |
| GGCAGUACAGAGGAUAUCUGGACCUACAGGAAUAGAGAAGGUUGUACAUGAGGAUCACCCAUGUCGACACUCAG [Eternabot (Original) Solution 11] (Eterna round: R97, puzzle: Exclusion 6) | N |
| AAUUAGUAUGUGAGGAUAUUGACGGAAUGACUUGUUAAGAAGGCACAUGAGGAUCACCCAUGUGGGAAGUCACG [JR_BMEx4_Sub012] (Eterna round: R97, puzzle: Brourd's mod of Exclusion 4) | N |
| UACAUGAGGAUCACCCAUGUUUUGUCGUGUAUGGUAUUUAUCUAGGAUAUCAAUUUAUUUAUUUAUGAGAAGGAGAAUAUUAAU [JMF's solution 5] (Eterna round: R96, puzzle: Exclusion NG 3) | Y |
| UAUUUACAUGAGGAUCACCCAUGUCAGGAUAUGCGUCUAUCGUCGAAAGACGAUAGCCGCAGAAGGGACAAUAU [LRO-Excl01-21 mod derived from EliFisker 4.24] (Eterna round: R97, puzzle: Exclusion 1) | Y |
| ACAUGAGGAUCACCCAUGUGACCACGAUGGCUGAUGUAGACCUAGGAUAUGAGUGAAUAUCUAUCUCAGAAGGAGGUUGACUGG [Deportation 50 - Jieux - Exclusion NG 3] (Eterna round: R96, puzzle: Exclusion NG 3) | Y |
| CGUAGCAAAGUGAGGAUAUCUAGAGCCUCGGCUCUAGAGAAGGCACAUGAGGAUCACCCAUGUGGUCAGCUACG [BmEx4/8-A2] (Eterna round: R97, puzzle: Brourd's mod of Exclusion 4) | Y |
| AGGUGUAGAGGAUAUACUGCAAAGCACAUGAGGAUCACCCAUGUCCCUCUAUGAGAUUAAGUAGAAGGCUACACCA [Omei Ex5 C4] (Eterna round: R97, puzzle: Exclusion 5) | Y |
| GGUAAGCUAGGAUAUGCUUUGGGAAAGCAUUCCUUCGAUAAACUUGAGGAUCACCCAAGUAGAAGGAGCUUACU [salish99_ex2_r4_014] (Eterna round: R97, puzzle: Exclusion 2) | N |

* * *

- Test system: MS2 coat protein
- EXPERIMENT: apparent KD of MS2 coat protein; designed switch direction (-1 OFF switch, 1 ON switch): -1; higher = weaker reporter binding
- TEST_CONDITIONS: input ligand: none
PROPERTY_NAME: apparent KD of MS2 coat protein (nM)

| SEQUENCE_CHAIN | UNIT_NAME | EXPERIMENTAL_RESULT |
| --- | --- | --- |
| AUUUAGCGAGGAUAUACCAACGUGAUCUUCGACUGAGCGGCACUUGAGGAUCACCCAAGUAGAAGGCGCACUAU [Onleindian] (Eterna round: R97, puzzle: Exclusion 2) | nM | 207 |
| UAUGAUUUAGGAUAUUGUACUGCUGACAUGAGGAUCACCCAUGUAUGCUAACUCGGCCGUCGAGAAGGAAAUUAUG [BotMod 28 - Jieux - Exclusion 5] (Eterna round: R97, puzzle: Exclusion 5) | nM | 52.6 |
| GUCGUGCAGCUUUGCUGUACGAGUACAUGAGGAUCACCCAUGUAGGAUAUGGUACGCUUUGCGUGCUAGAAGGAUAUGUGUAGA [salish99_ExNG3_r04_502] (Eterna round: R96, puzzle: Exclusion NG 3) | nM | 36.1 |
| UCACGGGACUGAGGAUAUACAUGAACCAUUUUUGUAGAAGGCAGAAUGUUUGAUCAUACACUAAACAUGAGGAUCACCCAUGUU [JR_ExcNG1_Sub026] (Eterna round: R96, puzzle: Exclusion NG 1) | nM | 20.1 |
| UACAUGAGGAUCACCCAUGUUUUGUCGUGUAUGGUAUUUAUCUAGGAUAUCAAGUUAAUUAUUUAUGAGAAGGAGAAUAUUAAU [JMF's solution 28] (Eterna round: R96, puzzle: Exclusion NG 3) | nM | 39 |
